All values here come from paper PMC5460289.

test: MTT anti-proliferation assay, non-tumorigenic cells; type: cell-based; conditions: human, non-tumorigenic MCF-10A cells, 24 h treatment
quantity name: CC50 at 24 h (µM)
I only need the number, in µM, no unit after it.

Worked cases, CC50 at 24 h given:
INSERT INTO results (compound, quantity_name, number) VALUES
  ('CC(C)=CC[C@@H](OC(=O)CSc1nnc(-c2ccc(Cl)cc2)o1)C1=CC(=O)c2c(O)ccc(O)c2C1=O [PMM-162]', 'CC50 at 24 h', 91.9),
  ('CC(C)=CC[C@@H](OC(=O)CSc1nnc(-c2ccc(Br)cc2)o1)C1=CC(=O)c2c(O)ccc(O)c2C1=O [PMM-165]', 'CC50 at 24 h', 83.7),
  ('CC(C)=CC[C@@H](OC(=O)CSc1nnc(-c2cccc(Br)c2)o1)C1=CC(=O)c2c(O)ccc(O)c2C1=O [PMM-166]', 'CC50 at 24 h', 69.9),
  ('CC(C)=CC[C@@H](OC(=O)CSc1nnc(-c2cccc(Cl)c2)o1)C1=CC(=O)c2c(O)ccc(O)c2C1=O [PMM-163]', 'CC50 at 24 h', 86.2),
  ('CC(C)=CC[C@@H](O)C1=CC(=O)c2c(O)ccc(O)c2C1=O [Shikonin, shikonin]', 'CC50 at 24 h', 23.5);

Please report the recorded CC50 at 24 h for CC(C)=CC[C@@H](OC(=O)CSc1nnc(-c2ccccc2Cl)o1)C1=CC(=O)c2c(O)ccc(O)c2C1=O [PMM-164] .
74.6

Look up CC50 at 24 h for this compound: CC(C)=CC[C@@H](OC(=O)CSc1nnc(-c2cccc(F)c2)o1)C1=CC(=O)c2c(O)ccc(O)c2C1=O [PMM-160]
68.3

Which value of CC50 at 24 h has been reported for COc1cc(OC)cc(-c2nnc(SCC(=O)O[C@H](CC=C(C)C)C3=CC(=O)c4c(O)ccc(O)c4C3=O)o2)c1 [PMM-172] in the records?
95.4

* * *

system: BT-474; assay: MTT anti-proliferation assay; format: cell-based, human; conditions: 24 h treatment
quantity name: pIC50
Please express pIC50 as -log10 of the molar concentration.

Fill in: pIC50 of O=[N+]([O-])c1ccc2c(c1)S(=O)(=O)C=C2 [Stattic, reference compound] is ___
5.29

* * *

experiment: MTT anti-proliferation assay, non-tumorigenic cells; type: cell-based; conditions: human, non-tumorigenic MCF-10A cells, 24 h treatment
Rule: measured CC50 at 24 h below 90 µM gets True; anything equal to or greater than 90 µM gets False.

For orientation, consider the following solved cases.
INSERT INTO measurements (compound, assigned_label) VALUES
  ('CC(C)=CC[C@@H](OC(=O)CSc1nnc(-c2ccccc2F)o1)C1=CC(=O)c2c(O)ccc(O)c2C1=O [PMM-161]', 'True'),
  ('COc1cccc(-c2nnc(SCC(=O)O[C@H](CC=C(C)C)C3=CC(=O)c4c(O)ccc(O)c4C3=O)o2)c1 [PMM-169]', 'False'),
  ('CC(C)=CC[C@@H](OC(=O)CSc1nnc(-c2ccccc2Br)o1)C1=CC(=O)c2c(O)ccc(O)c2C1=O [PMM-167]', 'True');

Lab note: next compound to report on.
Bench note: check whether COc1ccccc1-c1nnc(SCC(=O)O[C@H](CC=C(C)C)C2=CC(=O)c3c(O)ccc(O)c3C2=O)o1 [PMM-170] shows CC50 at 24 h below 90 µM
False

* * *

Assay: MTT anti-proliferation assay, non-tumorigenic cells
Format: cell-based
Conditions: human, non-tumorigenic MCF-10A cells, 24 h treatment
Procedure: Initial experiments were performed for evaluation of growth inhibition by the new compounds against six human breast cancer cell lines, including MCF-7 (ER+/PR+, HER-2-), BT474 (ER+/PR+, HER-2+), SKBR-3 (ER-/PR-/HER-2+), MDA-MB-436 (ER-/PR-/HER-2-), MDA-MB-231 (ER-/PR-/HER-2-), MDA-MB-468 (ER-/PR-/HER-2-) and non-tumorigenic MCF-10A cells. […] Subsequently, the inhibition of STAT3 activation by PMM-172 and Stattic was evaluated using a dual-luciferase assay. […]
quantity name: CC50 at 24 h (µM)
Lab book: enter the figure in µM, no units written.

// solved cases for CC50 at 24 h follow
INSERT INTO measurements (molecular_string, quantity_name, output_unit, number) VALUES
  ('CC(C)=CC[C@@H](OC(=O)CSc1nnc(-c2ccc(F)cc2)o1)C1=CC(=O)c2c(O)ccc(O)c2C1=O', 'CC50 at 24 h', 'µM', 89.5),
  ('CC(C)=CC[C@@H](OC(=O)CSc1nnc(-c2ccc(C)cc2)o1)C1=CC(=O)c2c(O)ccc(O)c2C1=O', 'CC50 at 24 h', 'µM', 88.9);

Here is the next item to consider.
Fill in the blank: the reported CC50 at 24 h of `CC(C)=CC[C@@H](OC(=O)CSc1nnc(-c2ccccc2)o1)C1=CC(=O)c2c(O)ccc(O)c2C1=O` is ____.
92.5
